# MEASUREMENT_TARGET: human PAH with the R408W mutation (Homo sapiens, UniProt P00439, R408W)
# Construct: expressed in transfected cells
# Sequence (P00439 whole entry R408W): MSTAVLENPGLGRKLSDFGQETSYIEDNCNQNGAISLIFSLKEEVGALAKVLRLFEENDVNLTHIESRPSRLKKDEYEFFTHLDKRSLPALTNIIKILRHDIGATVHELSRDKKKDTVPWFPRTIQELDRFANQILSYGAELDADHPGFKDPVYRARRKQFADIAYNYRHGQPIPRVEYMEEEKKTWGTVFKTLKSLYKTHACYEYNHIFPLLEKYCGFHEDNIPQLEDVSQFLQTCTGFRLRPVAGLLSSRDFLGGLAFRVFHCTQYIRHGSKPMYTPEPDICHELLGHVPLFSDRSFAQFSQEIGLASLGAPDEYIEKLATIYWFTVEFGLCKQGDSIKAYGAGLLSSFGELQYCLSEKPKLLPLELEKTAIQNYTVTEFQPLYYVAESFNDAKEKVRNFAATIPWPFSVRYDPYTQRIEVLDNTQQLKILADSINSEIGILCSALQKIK
# ASSAY_NAME: Cell Based Phenylalanine Flux Assay
# COND: A375 cells expressing human R408W PAH; 24 hrs with compound; 13C-Tyrosine by LC-MS; average where tested multiple times; read-out: AC50
AC50 values by entry

The examples below pair each entry with its known result.
[[record]]
compound = "CC(C)(O)c1nc(C2CC2)c(C(=O)N2CCc3[nH]cnc3[C@H]2c2nc3ccccc3[nH]2)o1"
measurement_target = "human PAH with the R408W mutation (Homo sapiens, UniProt P00439, R408W)"
endpoint_result = "1 to 5 µM"

[[record]]
compound = "O=C(c1nc2ccc(F)cc2s1)N1CCc2[nH]cnc2C1c1nc2ccccc2s1 (stereo not drawn)"
measurement_target = "human PAH with the R408W mutation (Homo sapiens, UniProt P00439, R408W)"
endpoint_result = "1 to 5 µM"

[[record]]
compound = "Cc1nnc(N2CCc3[nH]cnc3C2c2nc3ccccc3s2)o1 (stereo not drawn)"
measurement_target = "human PAH with the R408W mutation (Homo sapiens, UniProt P00439, R408W)"
endpoint_result = "> 5 µM"

[[record]]
compound = "Cc1nnc(CCC(=O)N2CCc3[nH]cnc3C2c2nc3c(F)cccc3s2)s1 (stereo not drawn)"
measurement_target = "human PAH with the R408W mutation (Homo sapiens, UniProt P00439, R408W)"
endpoint_result = "1 to 5 µM"

[[record]]
compound = "O=C(c1cnn2cc(Br)ccc12)N1CCc2[nH]cnc2C1c1nc2cc(F)ccc2s1 (stereo not drawn)"
measurement_target = "human PAH with the R408W mutation (Homo sapiens, UniProt P00439, R408W)"
endpoint_result = "1 to 5 µM"

[[record]]
compound = "O=C(C1CC1)N1CCc2[nH]cnc2C1c1nc2c(F)cccc2s1 (stereo not drawn)"
measurement_target = "human PAH with the R408W mutation (Homo sapiens, UniProt P00439, R408W)"
endpoint_result = "> 5 µM"


In: Please give the documented AC50 of Cc1nc(C(C)(C)S(C)(=O)=O)oc1C(=O)N1CCc2[nH]cnc2[C@@H]1c1nc2c(F)cccc2s1 (single isomer, unassigned)
Out: > 5 µM

In: Please give the documented AC50 of "O=C(C1CCC1)N1CCc2[nH]cnc2[C@H]1c1nc2ccccc2[nH]1"
Out: 1 to 5 µM

In: Please give the documented AC50 of Cc1nnc(C(=O)N2CCc3[nH]cnc3C2c2nc3ccc(F)cc3s2)s1 (stereo not drawn)
Out: > 5 µM
